logP by entry:
# Method description: log P determination by HPLC on reverse-phase column (C 18), acidic range pH 2.3 (EEC Directive 79/831 Annex V. A8)
# Type: physicochemical
# Test conditions: Table 1 (I-c); pH 2.3, HPLC C18, 43° C.; main diastereomer or, where several values in a cell, the individual diastereomers
Output spec: single numeric token, no unit.

Compound: CC(C)CCC1CCCCC1NC(=O)c1cn(C)nc1C(F)F (mixture of isomers)
Endpoint result: 3.95
--
Compound: Cc1nn(C)c(F)c1C(=O)NC1CCCCC1CCCC(C)C (centres unmarked)
Endpoint result: 4.30
--
Compound: Cc1nc(C(F)(F)F)c(C(=O)NC2CCCCC2CCC(C)C)s1 (mixture of isomers)
Endpoint result: 4.6
--
Compound: CC(C)CCCC1CCCCC1NC(=O)c1cn(C)nc1C(F)(F)F (centres unmarked)
Endpoint result: 4.66

Kindly review the next compound as well.
input: // query logP value for entry CC(C)(C)CCC1CCCCC1NC(=O)c1ccsc1C(F)(F)F (centres unmarked)
output: 4.87

====

logP by entry:
# Method description: log P determination by HPLC on reverse-phase column (C 18), acidic range pH 2.3 (EEC Directive 79/831 Annex V. A8)
# Format: physicochemical
# Test conditions: Table 1 (I-c); pH 2.3, HPLC C18, 43° C.; main diastereomer or, where several values in a cell, the individual diastereomers

Molecule: CC(C)CCCC1CCCCC1NC(=O)c1cccnc1Cl (stereo not shown)
Endpoint result: 4.22

Molecule: Cc1nc(C(F)F)c(C(=O)NC2CCCCC2CCC(C)(C)C)s1 (stereo not shown)
Endpoint result: 4.71

Molecule: CC(C)CCC1CCCCC1NC(=O)c1ccccc1C(F)(F)F (mixture of isomers)
Endpoint result: 4.59

Molecule: Cc1nc(C(F)(F)F)c(C(=O)NC2CCCCC2CCCC(C)C)s1 (stereo not shown)
Endpoint result: 5.06

Molecule: Cc1nc(C(F)F)c(C(=O)NC2CCCCC2CCCC(C)C)s1 (stereo not shown)
Endpoint result: 4.95

Molecule: CC(C)(C)CCC1CCCCC1NC(=O)c1nccnc1Cl (mixture of isomers)
Endpoint result: 4.27

input: // query logP value for entry Cc1nn(C)cc1C(=O)NC1CCCCC1CCC(C)C (mixture of isomers)
output: 3.19

====

# System: Podosphaera leucotricha
# Method description: Podosphaera test (apple)/protective
# Type: in vivo
# Test conditions: protective, application rate 100 g/ha, evaluation 10 days after inoculation, 0% = control, 100% = no infection
# Procedure: To produce a suitable preparation of active compound, 1 part by weight of active compound is mixed with the stated amounts of solvents and emulsifier, and the concentrate is diluted with water to the desired concentration. To test for protective activity, young plants are sprayed with the preparation of active compound at the stated application rate. After the spray coating has dried on, the plants are inoculated with an aqueous spore suspension of Podosphaera leucotricha. […]
Parameter: Efficacy in % (%)
Express your answer in %, writing the number without its unit.

Example entries begin here.
Compound: CC(C)CC(C)C1CCCCC1NC(=O)c1nccnc1Cl (stereo not shown)
System tested: Podosphaera leucotricha
Unit of measurement: %
Efficacy in %: 100
--
Compound: CC(C)CC(C)C1CCCCC1NC(=O)c1cn(C)nc1C(F)F (stereo not shown)
System tested: Podosphaera leucotricha
Unit of measurement: %
Efficacy in %: 100
--
Compound: Cc1nn(C)c(F)c1C(=O)NC1CCCCC1C(C)CC(C)C (stereo not shown)
System tested: Podosphaera leucotricha
Unit of measurement: %
Efficacy in %: 88

Kindly review the next compound as well.
input: // query Efficacy in % value for entry Cc1nc(C(F)F)c(C(=O)NC2CCCCC2C(C)CC(C)C)s1 (stereo not shown)
output: 100
